- target.under.test: T1, recombinant human TNFR2-Fc protein (Sino Biological) (human, UniProt P20333 23-257, limits assumed)
- T1 construct: bought; also called human TNFR2 protein; not shown: Fc part of the bought fusion protein; not described
- T1 sequence (looked up): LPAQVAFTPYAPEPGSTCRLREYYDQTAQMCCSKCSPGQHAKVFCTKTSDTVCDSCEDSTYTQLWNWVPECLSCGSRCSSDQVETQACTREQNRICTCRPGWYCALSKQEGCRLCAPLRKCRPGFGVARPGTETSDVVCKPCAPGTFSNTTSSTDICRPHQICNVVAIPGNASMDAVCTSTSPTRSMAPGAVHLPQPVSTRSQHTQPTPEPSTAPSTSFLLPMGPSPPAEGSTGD
- experimental.protocol: ELISA, coated TNFR2-Fc
measurement.type: EC50 (nM)
# unit: nM | format: bare number

Enquiry: Can you look up the measured EC50 of 004-E08 (antibody, V domains shown, IgG) VH: EVQLLESGGGLVQPGGSLRLSCAASGFTFSRYWMHWVRQVPGKGLEWVSGISDSGVVTYYADSVKGRFTISRDNSKNTLYLQMNSLRAEDTAVYYCARAQSVAFDIWGQGTLVTVSS VL: QSVLTQPPSASGTPGQRVTISCSGSSSNIGAGHDVHWYQQLPGTAPKLLIYYDDLLPSGVPDRFSGSKSGTSASLAISGLRSEDEADYYCAAWDDSLSGWVFGGGTKLTVLG for me?
Return: 0.38

Where do these numbers come from? They come from patent US20220002426A1.
